The measured values listed here are drawn from paper PMC9414972.

# EXPERIMENT: DPPH radical scavenging activity
# TEST_CONTEXT: DPPH radical scavenging, 30 min, 25 °C
pIC50: −log10 of the molar value.
MEASUREMENT_NAME: pIC50

{"columns": ["COMPOUND", "MEASUREMENT_NAME", "RECORDED_NUMBER"],
 "data": [
  ["CCCSc1nnc(COc2cccc3cccnc23)o1 [4b]", "pIC50", 4.11],
  ["Clc1ccc(CSc2nnc(COc3cccc4cccnc34)o2)c(Cl)c1 [4t]", "pIC50", 4.03],
  ["c1ccc(CSc2nnc(COc3cccc4cccnc34)o2)cc1 [4j]", "pIC50", 4.26],
  ["c1ccc(-n2cc(CSc3nnc(COc4cccc5cccnc45)o3)nn2)cc1 [12k]", "pIC50", 4.07],
  ["O=C(O)c1cc(O)c(O)c(O)c1 [Gallic acid, reference compound]", "pIC50", 4.57],
  ["Clc1ccc(Cn2cc(CSc3nnc(COc4cccc5cccnc45)o3)nn2)c(Cl)c1 [12i]", "pIC50", 4.02],
  ["Fc1ccc(-n2cc(CSc3nnc(COc4cccc5cccnc45)o3)nn2)cc1 [12m]", "pIC50", 4.05],
  ["Brc1cccc(CSc2nnc(COc3cccc4cccnc34)o2)c1 [4q]", "pIC50", 4.10],
  ["Clc1ccc(-n2cc(CSc3nnc(COc4cccc5cccnc45)o3)nn2)c(Cl)c1 [12r]", "pIC50", 4.00],
  ["O=[N+]([O-])c1ccc(Cn2cc(CSc3nnc(COc4cccc5cccnc45)o3)nn2)cc1 [12g]", "pIC50", 4.09],
  ["CCCCCCn1cc(CSc2nnc(COc3cccc4cccnc34)o2)nn1 [12b]", "pIC50", 4.10],
  ["O=[N+]([O-])c1ccc(-n2cc(CSc3nnc(COc4cccc5cccnc45)o3)nn2)cc1 [12o]", "pIC50", 4.05],
  ["Fc1ccc(Cn2cc(CSc3nnc(COc4cccc5cccnc45)o3)nn2)cc1 [12e]", "pIC50", 4.03],
  ["Fc1ccc(CSc2nnc(COc3cccc4cccnc34)o2)c(F)c1 [4r]", "pIC50", 4.19],
  ["Sc1nnc(COc2cccc3cccnc23)o1 [compound 3]", "pIC50", 4.60],
  ["Fc1ccc(Cn2cc(CSc3nnc(COc4cccc5cccnc45)o3)nn2)cc1F [12j]", "pIC50", 3.99],
  ["Clc1ccc(CSc2nnc(COc3cccc4cccnc34)o2)cc1 [4l]", "pIC50", 4.11],
  ["CCCCCSc1nnc(COc2cccc3cccnc23)o1 [4d]", "pIC50", 4.08],
  ["Brc1ccc(-n2cc(CSc3nnc(COc4cccc5cccnc45)o3)nn2)cc1 [12n]", "pIC50", 4.04],
  ["Fc1ccc(CSc2nnc(COc3cccc4cccnc34)o2)cc1F [4s]", "pIC50", 4.06],
  ["Fc1ccc(CSc2nnc(COc3cccc4cccnc34)o2)cc1 [4k]", "pIC50", 4.09]
]}
